assay: solvent given as SMILES; settings: in C1CCCCC1
Listed here: items and their measured emission maximum.
MEASUREMENT NAME: emission maximum (nm)

1. CC1(C)c2ccccc2N(c2ccc3c(c2)c2cc(N4c5ccccc5C(C)(C)c5ccccc54)cc4c5ccccc5n3c42)c2ccccc21	427.57
2. Cc1cc2ccc(-c3cccc4cccc(-c5ccc6cc(C)c(=O)oc6c5)c34)cc2oc1=O	392
3. ClC(Cl)=C1c2ccccc2C(C2(Cl)c3ccccc3C(=C(Cl)Cl)c3ccccc32)c2ccccc21 (centres undefined)	425.81
4. FC(F)(F)c1cc2n(n1)[B-]1(c3ccccc3-c3ccccc31)[n+]1ccc3ccccc3c1-2	490
5. c1ccc(-c2nc3c(ccc4[nH]ccc43)o2)cc1	372
6. O=C1Nc2ccccc2/C1=C/C(=O)c1ccc(Cl)cc1	382
7. CCn1c2ccccc2c2ccc(C#N)cc21	373
8. COc1ccc2c(c1)c1cc(OC)ccc1n2-c1cc(Cl)c([C](c2c(Cl)cc(Cl)cc2Cl)c2c(Cl)cc(Cl)cc2Cl)c(Cl)c1	728
9. CCCCCCCCOc1ccc(C2=C(c3ccc(OCCCCCCCC)cc3)C(C)(C)c3ccccc32)cc1	390

* * *

assay: solvent given as SMILES; conditions: in ClCCl
Listing of recorded emission maximum by entry.
MEASUREMENT NAME: emission maximum (nm)

1) c1cc2c3c(c1)ccc1[n+]3[B-]3(Oc4cccc5ccc6[n+](c45)[B-](O2)(O3)n2c-6cc3c4ccccc4c4ccccc4c32)n2c-1cc1c3ccccc3c3ccccc3c12	568
2) c1ccc2cc(-c3c4ccccc4c(-c4ccc(-c5ccc(-n6c7ccccc7c7ccccc76)cc5)cc4)c4ccccc34)ccc2c1	427
3) c1ccc(N(c2ccccc2)c2ccc(-c3ccc(-c4nc(-c5ccccn5)n(-c5ccccc5)n4)cc3)cc2)cc1	435
4) CCCCCCCCCCCCN1C(=O)c2c(c3ccc4cc(-c5ccc(C#N)cc5)c(OC)cc4c3c3c2ccc2cc(-c4ccc(C#N)cc4)c(OC)cc23)C1=O	520
5) COc1ccc(CCNC(=O)c2sc(-c3ccc(-c4cc(-c5ccc(C(C)(C)C)cc5)c(C(=O)NCCc5ccc(OC)c(OC)c5)s4)s3)cc2-c2ccc(C(C)(C)C)cc2)cc1OC	449
6) CCOC(=O)c1c(-c2cc3c(ccc4ccccc43)oc2=O)nn(-c2cccc(C)c2)c1C(=O)OCC	440
7) CN(C)c1ccc(/C=C/c2cc[n+](C)c3ccccc23)cc1	680

* * *

test: solvent given as SMILES; details: in CCCO
MEASUREMENT NAME: emission maximum

1. Nc1ccc2cc(-c3ccc(C(F)(F)F)cc3)oc(=O)c2c1	459 nm
2. CCN(CC)c1ccc2c(C)cc(=O)oc2c1	452 nm
3. CN(C)c1ccc(/C=C2\OC(=O)c3cc(N)ccc32)cc1	559.91 nm
4. Cc1cc(=O)c2ccc(N)cc2o1	416 nm
5. CC1(C)Nc2cc(Cl)ccc2-c2[nH]c3ccccc3c(=O)c21	505 nm
6. O=c1[nH]c2ccccc2[nH]1	310 nm
7. Oc1cccc(/N=C/c2ccccc2Oc2ccccc2)c1	395 nm
8. COc1ccc2cc(-c3ccc(C(F)(F)F)cc3)oc(=O)c2c1	410 nm
9. CN1CCN(c2ccc3c4c(cccc24)C(=O)c2ccccc2-3)CC1	637 nm
10. CCC1=C(C)C2=C(C)c3c(C)c(CC)c(C)n3[B-](F)(F)[N+]2=C1C	534 nm
11. FC(F)(F)c1ccc(/C=C/c2ccc(-c3nnc(-c4ccc(-c5cc6ccccc6s5)cc4)o3)cc2)cc1	391 nm
